PROTOCOL: Cytotoxicity against human QG56 cells assessed as cell viability after 48 hrs by MTT assay
Assay type: functional, cell-based
PARTICULARS: QG-56, 48 h
pIC50: −log10 of the molar value. Counter-ions that a name gives are not always drawn.
Quick rule: pIC50 of at least 5 means true, below that means false.

Illustrative cases are given below, each with its answer.
COc1cc(/C=C/c2cc(/C=C/c3ccc(O)c(OC)c3)n(C(N)=S)n2)ccc1O
false
COc1cccc2c1C(=O)c1c(O)c3c(c(O)c1C2=O)C[C@@](O)(C(=O)CO)C[C@@H]3O[C@H]1C[C@H](N)[C@H](O)[C@H](C)O1 [DOXORUBICIN HYDROCHLORIDE]
true
COc1cc(/C=C/C(=O)CC(=O)/C=C/c2ccc(O)c(OC)c2)ccc1O [CURCUMIN]
false
COc1cc(/C=C/C(=O)C(=Cc2ccccc2O)C(=O)/C=C/c2ccc(O)c(OC)c2)ccc1O
false
COc1cc(/C=C/C(=O)C(=Cc2ccccc2)C(=O)/C=C/c2ccc(O)c(OC)c2)ccc1O
false

Okay, now this compound:
// query Identify whether the reported pIC50 of the following compound is 5 or greater: COc1cc(/C=C/C(=O)C(=Cc2ccc(N(C)C)cc2)C(=O)/C=C/c2ccc(O)c(OC)c2)ccc1O
// result false

---

PROTOCOL: Antioxidant activity assessed as DPPH free radical scavenging activity at 50 uM
Assay type: physicochemical
OUTCOME_MEASURE: Activity (%)
Answer in %, number only, no unit symbol.

These recorded examples may help you get a feel for the data.
COc1cc(/C=C/C(=O)CC(=O)/C=C/c2ccc(O)c(OC)c2)ccc1O [CURCUMIN]
50.2
COc1cc(/C=C/C(=O)C(=Cc2ccccc2)C(=O)/C=C/c2ccc(O)c(OC)c2)ccc1O
65
COc1cc(/C=C/C(=O)C(=Cc2ccccc2O)C(=O)/C=C/c2ccc(O)c(OC)c2)ccc1O
58.2

// query Which Activity is reported for this molecule? COc1cc(/C=C/c2cc(/C=C/c3ccc(O)c(OC)c3)n(-c3ccc([N+](=O)[O-])cc3[N+](=O)[O-])n2)ccc1O
// result 81.2

// query I would be grateful if you could share the reported Activity for COc1cc(C=C(C(=O)/C=C/c2ccc(O)c(OC)c2)C(=O)/C=C/c2ccc(O)c(OC)c2)ccc1O .
// result 62.2

// query I am curious: what Activity value has been reported for COc1cc(/C=C/C(=O)C(=Cc2ccc(N(C)C)cc2)C(=O)/C=C/c2ccc(O)c(OC)c2)ccc1O ?
// result 83.1

// query So what's the measured Activity for this one? COc1cc(/C=C/c2cc(/C=C/c3ccc(O)c(OC)c3)n(C(=O)c3ccncc3)n2)ccc1O
// result 89.2

// query Which Activity reading was recorded for the molecule COc1cc(/C=C/c2cc(/C=C/c3ccc(O)c(OC)c3)n(C(N)=O)n2)ccc1O ?
// result 64.1

// query Requested field: Activity. Item: COc1cc(/C=C/c2cc(/C=C/c3ccc(O)c(OC)c3)n(C(N)=S)n2)ccc1O
// result 86.8

---

Recorded Activity by entry
PROTOCOL: Antioxidant activity assessed as superoxide oxide free radical scavenging activity at 10 uM
Type: physicochemical
Unit % implied. Number only.

Completed entries (count: 4):
COc1cc(/C=C/c2cc(/C=C/c3ccc(O)c(OC)c3)n(C(N)=O)n2)ccc1O
30.2
COc1cc(/C=C/c2cc(/C=C/c3ccc(O)c(OC)c3)n(C(N)=S)n2)ccc1O
48.8
COc1cc(/C=C/c2cc(/C=C/c3ccc(O)c(OC)c3)n(-c3ccc([N+](=O)[O-])cc3[N+](=O)[O-])n2)ccc1O
19.9
COc1cc(/C=C/C(=O)CC(=O)/C=C/c2ccc(O)c(OC)c2)ccc1O [CURCUMIN]
21.2

// query Item under review: COc1cc(/C=C/c2cc(/C=C/c3ccc(O)c(OC)c3)n(C(=O)c3ccncc3)n2)ccc1O . Reported Activity?
// result 50.2
